The measured values listed here are drawn from ChEMBL document CHEMBL4513216.

test system: Plasmodium falciparum; experiment: Screen against P. falciparum Asexual Blood Stage (ABS), at 5uM; type: functional, Dd2; conditions: tested at 5 uM
Screen size: about 65,000 compounds; about 2,100 (3.2%) showed an effect of 50% or more. The median lay at about -52%. The sample holds strong results, similar compounds and a random draw of the others, so the mix is not that of the screen.
Measure Name: INHIBITION (%)

Molecule: CCN(CC)C(=O)CCc1nc(-c2cnn3c(C)cc(C)nc23)no1
Assayed System: Plasmodium falciparum
Measure Name: INHIBITION
Recorded Measurement: -59.8
//
Molecule: O=C(CC1CC1)N1C[C@H]2CN(CC3CC3)C(=O)[C@H]2C1
Assayed System: Plasmodium falciparum
Measure Name: INHIBITION
Recorded Measurement: -64.7
//
Molecule: CCC1=NC2(CCC(C(=O)Nc3ccc(C)nc3)CC2)C(=O)N1C (stereo unspecified)
Assayed System: Plasmodium falciparum
Measure Name: INHIBITION
Recorded Measurement: -28.2
//
Molecule: Cc1cc(N(Cc2ccccc2F)C2CC2)n2nc(C(F)(F)F)nc2n1
Assayed System: Plasmodium falciparum
Measure Name: INHIBITION
Recorded Measurement: 4
//
Molecule: COCCN1CCN(Cc2cnc(C(C)C)nc2)CC1
Assayed System: Plasmodium falciparum
Measure Name: INHIBITION
Recorded Measurement: -72.3
//
Molecule: O=C1CC(c2ccncc2)C2(CCN(C(=O)c3cccs3)CC2)N1 (stereo unspecified)
Assayed System: Plasmodium falciparum
Measure Name: INHIBITION
Recorded Measurement: -50.7
//
Molecule: CNCc1cc(C)n(-c2ccccc2OC)c1C
Assayed System: Plasmodium falciparum
Measure Name: INHIBITION
Recorded Measurement: 30.8
//
Molecule: CC(=O)N(Cc1ncc(C(C)C)o1)C1CCN(CC2CCC2)C1 (stereo unspecified)
Assayed System: Plasmodium falciparum
Measure Name: INHIBITION
Recorded Measurement: -113
//
Molecule: Cc1cc(N(Cc2cccs2)C2CC2)n2nc(C(F)(F)F)nc2n1
Assayed System: Plasmodium falciparum
Measure Name: INHIBITION
Recorded Measurement: 67.3
//
Molecule: CCN(CC)Cc1ccc(C(=O)NC2CCc3cc(Cl)ccc32)o1 (stereo unspecified)
Assayed System: Plasmodium falciparum
Measure Name: INHIBITION
Recorded Measurement: 56
//
Molecule: CC(=O)N(Cc1ncc(C(C)C)o1)C1CCN(CCC#N)C1 (stereo unspecified)
Assayed System: Plasmodium falciparum
Measure Name: INHIBITION
Recorded Measurement: 57
//
Molecule: Cc1ccc(C(=O)Nc2ccccc2F)n1C
Assayed System: Plasmodium falciparum
Measure Name: INHIBITION
Recorded Measurement: -184
//
Molecule: O=C(CCc1ccc(-n2cnnn2)cc1)Nc1ccncc1
Assayed System: Plasmodium falciparum
Measure Name: INHIBITION
Recorded Measurement: -12.1
//
Molecule: CC(=O)N(Cc1ncc(C(C)C)o1)C1CCN(CCn2cccn2)C1 (stereo unspecified)
Assayed System: Plasmodium falciparum
Measure Name: INHIBITION
Recorded Measurement: -150
//
Molecule: CC1=N[C@@]2(CC[C@@H]3CN(Cc4ccccc4)C[C@@H]32)C(=O)N1CC1CC1
Assayed System: Plasmodium falciparum
Measure Name: INHIBITION
Recorded Measurement: 17.7
//
Molecule: O=S(=O)(C1CC1)N1CC[C@]2(C[C@@H](Oc3ncccc3F)CO2)C1
Assayed System: Plasmodium falciparum
Measure Name: INHIBITION
Recorded Measurement: -24.1
//
Molecule: Cc1cc(C)c(Cn2cncn2)cc1CN1CCC(CN)C1 (stereo unspecified)
Assayed System: Plasmodium falciparum
Measure Name: INHIBITION
Recorded Measurement: 69
//
Molecule: COc1ccc2nnc(CCCC(=O)NCCc3ccccn3)n2n1
Assayed System: Plasmodium falciparum
Measure Name: INHIBITION
Recorded Measurement: -138
//
Molecule: CCN(C)c1cc(CNC(=O)CNC(=O)CC2CCCCC2)ccn1
Assayed System: Plasmodium falciparum
Measure Name: INHIBITION
Recorded Measurement: -24.9
//
Molecule: c1cnn(CC2CCCN2c2ncnc3ccsc23)c1 (stereo unspecified)
Assayed System: Plasmodium falciparum
Measure Name: INHIBITION
Recorded Measurement: -122
//
Molecule: CC(C(=O)Nc1ccccc1F)S(C)(=O)=O (stereo unspecified)
Assayed System: Plasmodium falciparum
Measure Name: INHIBITION
Recorded Measurement: -75.4
//
Molecule: O=C(Cc1cccs1)Nc1cnn(C2CCOCC2)c1
Assayed System: Plasmodium falciparum
Measure Name: INHIBITION
Recorded Measurement: -142
//
Molecule: CC(C)CC1CC(=O)Nc2c1cnn2Cc1ccco1 (stereo unspecified)
Assayed System: Plasmodium falciparum
Measure Name: INHIBITION
Recorded Measurement: -129
//
Molecule: C=Cn1cc(CN2CCC(c3ncc(Cl)cc3S(C)(=O)=O)CC2)c(C)n1
Assayed System: Plasmodium falciparum
Measure Name: INHIBITION
Recorded Measurement: 14.8
//
Molecule: Cc1nn(CCO)c(C)c1CNC1CCC(C)(C)c2ccccc21 (stereo unspecified)
Assayed System: Plasmodium falciparum
Measure Name: INHIBITION
Recorded Measurement: 69.2
//
Molecule: CC(NC(=O)NCCCn1cncn1)c1ccc(C(F)(F)F)cc1 (stereo unspecified)
Assayed System: Plasmodium falciparum
Measure Name: INHIBITION
Recorded Measurement: 57.2
//
Molecule: Cc1cc(C(=O)N2CCc3ncnc(-c4cnn(C)c4)c3CC2)c(C)o1
Assayed System: Plasmodium falciparum
Measure Name: INHIBITION
Recorded Measurement: -23.2
//
Molecule: CC(=O)N(Cc1ncc(C(C)C)o1)C1CCN(Cc2nccn2C)C1 (stereo unspecified)
Assayed System: Plasmodium falciparum
Measure Name: INHIBITION
Recorded Measurement: -176
//
Molecule: CNc1nccnc1C1CN(C(=O)c2c[nH]cn2)CCO1 (stereo unspecified)
Assayed System: Plasmodium falciparum
Measure Name: INHIBITION
Recorded Measurement: -87.7
//
Molecule: Cc1cc(N(Cc2ccccn2)C2CC2)n2nc(C(F)(F)F)nc2n1
Assayed System: Plasmodium falciparum
Measure Name: INHIBITION
Recorded Measurement: -61.2
//
Molecule: CC1=N[C@@]2(CC[C@@H]3CN(Cc4ccc(C)cc4)C[C@@H]32)C(=O)N1CC1CC1
Assayed System: Plasmodium falciparum
Measure Name: INHIBITION
Recorded Measurement: 30.2
//
Molecule: CCN(CC)Cc1ccc(C(=O)NC2CCc3cc(F)ccc32)o1 (stereo unspecified)
Assayed System: Plasmodium falciparum
Measure Name: INHIBITION
Recorded Measurement: 16.3
//
Molecule: Cn1cc(C[C@H]2[C@H](O)CCN2Cc2ccc(F)cc2)cn1
Assayed System: Plasmodium falciparum
Measure Name: INHIBITION
Recorded Measurement: 6.42
//
Molecule: Cc1nn(CCO)c(C)c1CNC1CCCCc2ccccc21 (stereo unspecified)
Assayed System: Plasmodium falciparum
Measure Name: INHIBITION
Recorded Measurement: -4.05
//
Molecule: COCCN1C(=O)[C@]2(CC[C@@H]3CN(Cc4ccccc4F)C[C@@H]32)N=C1C
Assayed System: Plasmodium falciparum
Measure Name: INHIBITION
Recorded Measurement: -37.9
//
Molecule: O=C(NCC(O)COc1ccccc1)Nc1nncs1 (stereo unspecified)
Assayed System: Plasmodium falciparum
Measure Name: INHIBITION
Recorded Measurement: -50.2
//
Molecule: c1cnc(-c2noc(C3CN(Cc4ccc5c(c4)CCO5)C3)n2)cn1
Assayed System: Plasmodium falciparum
Measure Name: INHIBITION
Recorded Measurement: 4.79
//
Molecule: CCNC(=O)[C@@H]1C[C@H](N)CN1c1cc(C(F)(F)F)nc(N(C)C)n1
Assayed System: Plasmodium falciparum
Measure Name: INHIBITION
Recorded Measurement: 20.4
//
Molecule: CC(NC(=O)NCCCn1cncn1)c1ccncc1 (stereo unspecified)
Assayed System: Plasmodium falciparum
Measure Name: INHIBITION
Recorded Measurement: -85.1
//
Molecule: CCNC(=O)[C@@H]1C[C@H](N)CN1c1cc(CC)nc(N(C)C)n1
Assayed System: Plasmodium falciparum
Measure Name: INHIBITION
Recorded Measurement: -67.6
//
Molecule: COCCN1C[C@@H]2CN(C(=O)CC3CC3)C[C@@H]2C1=O
Assayed System: Plasmodium falciparum
Measure Name: INHIBITION
Recorded Measurement: 53.5
//
Molecule: Cn1nccc1-c1ncc2c(c1C(=O)O)CCN(Cc1ccccc1)C2
Assayed System: Plasmodium falciparum
Measure Name: INHIBITION
Recorded Measurement: -41.8
//
Molecule: CCc1cnc(CN(C(C)=O)C2CCN(Cc3nccn3C)C2)o1 (stereo unspecified)
Assayed System: Plasmodium falciparum
Measure Name: INHIBITION
Recorded Measurement: 51.5
//
Molecule: Cc1ccc(CN(CCCn2ccnc2)Cc2c[nH]nc2C(C)(C)C)s1
Assayed System: Plasmodium falciparum
Measure Name: INHIBITION
Recorded Measurement: 33.5
//
Molecule: CC(=O)N(Cc1ncc(C(C)C)o1)C1CCN(Cc2cc(C)no2)C1 (stereo unspecified)
Assayed System: Plasmodium falciparum
Measure Name: INHIBITION
Recorded Measurement: 59
//
Molecule: COc1ccc(-c2n[nH]c(C)c2CC(=O)NCC2CCOCC2)cc1
Assayed System: Plasmodium falciparum
Measure Name: INHIBITION
Recorded Measurement: 6.29
